Provide the recorded % activity for the entries that follow.
- assayed_system: human calcium receptor (Homo sapiens, UniProt P41180, R990G)
- Construct: expressed in transfected cells; host or cells: HEK 293
- Sequence (P41180 20-1078 R990G): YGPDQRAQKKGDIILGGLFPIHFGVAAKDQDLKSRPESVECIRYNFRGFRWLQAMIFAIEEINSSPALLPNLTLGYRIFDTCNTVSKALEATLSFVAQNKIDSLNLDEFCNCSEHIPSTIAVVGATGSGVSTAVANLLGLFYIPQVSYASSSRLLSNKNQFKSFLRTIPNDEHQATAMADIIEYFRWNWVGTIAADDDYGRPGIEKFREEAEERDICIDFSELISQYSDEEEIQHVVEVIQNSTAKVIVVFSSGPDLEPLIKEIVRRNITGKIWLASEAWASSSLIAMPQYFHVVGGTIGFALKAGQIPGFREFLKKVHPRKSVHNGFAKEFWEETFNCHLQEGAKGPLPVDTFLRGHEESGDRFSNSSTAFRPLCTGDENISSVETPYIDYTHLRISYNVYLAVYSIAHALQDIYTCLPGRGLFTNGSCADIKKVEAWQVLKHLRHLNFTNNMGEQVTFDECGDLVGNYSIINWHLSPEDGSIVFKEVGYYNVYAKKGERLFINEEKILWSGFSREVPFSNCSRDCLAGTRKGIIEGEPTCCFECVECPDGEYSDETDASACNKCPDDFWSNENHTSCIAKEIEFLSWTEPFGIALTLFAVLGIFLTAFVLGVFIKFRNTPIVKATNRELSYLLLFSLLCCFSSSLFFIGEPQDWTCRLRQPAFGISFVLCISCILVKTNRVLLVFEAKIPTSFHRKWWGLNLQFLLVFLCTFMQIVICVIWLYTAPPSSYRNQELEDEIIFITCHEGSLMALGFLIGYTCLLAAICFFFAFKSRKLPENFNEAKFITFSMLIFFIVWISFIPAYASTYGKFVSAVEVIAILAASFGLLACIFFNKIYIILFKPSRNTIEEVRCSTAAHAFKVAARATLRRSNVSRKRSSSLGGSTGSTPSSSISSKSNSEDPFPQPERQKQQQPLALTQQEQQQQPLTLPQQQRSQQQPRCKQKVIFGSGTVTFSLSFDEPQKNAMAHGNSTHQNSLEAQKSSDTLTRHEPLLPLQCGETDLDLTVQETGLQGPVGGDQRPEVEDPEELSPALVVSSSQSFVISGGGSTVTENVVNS
- test: increases in [Ca^2+ ]i in HEK-293 cells expressing the human calcium receptor (fura-2 loaded HEK 293/pHuPCaR4.0 cells), % activity
- Assay type: cell-based
- condition_notes: 33 ng/mL
Provide only the numeric value, understood in %.

Exam item: Name the recorded % activity for C[C@@H](NCc1ccc(C(C)(C)c2ccccc2)cc1)c1cccc2ccccc12 [Compound 12N] .
Marked response: 102

Exam item: Name the recorded % activity for Cc1cccc(C(C)NCCC(c2ccccc2)c2ccccc2)c1 (centres unmarked) .
Marked response: 19

Exam item: Name the recorded % activity for COc1ccc(CNCc2cccc3ccccc23)cc1C [Compound 17Y] .
Marked response: 79

Exam item: Name the recorded % activity for COc1cccc([C@@H](C)NCCCc2cc(F)ccc2F)c1 [Compound 24K] .
Marked response: 78

Exam item: Name the recorded % activity for COc1ccc([C@@H](C)N[C@H](C)c2cccc3ccccc23)cc1Cl [Compound 17X] .
Marked response: 93

Exam item: Name the recorded % activity for COc1cccc([C@@H](C)NC[C@H](C)C=Cc2ccccc2)c1 [Compound 25H] .
Marked response: 89

Exam item: Name the recorded % activity for CC(NC(C)c1cc2ccccc2c2ccccc12)c1cccc2ccccc12 (centres unmarked) [10S/10T] .
Marked response: 65

Exam item: Name the recorded % activity for COc1ccc(CNC(C)c2ccc(C)c(C)c2)cc1C (centres unmarked) [Compound 24G] .
Marked response: 75

Exam item: Name the recorded % activity for C[C@@H](NCc1ccc(I)cc1)c1cccc2ccccc12 [Compound 17E] .
Marked response: 110

Exam item: Name the recorded % activity for COc1ccccc1C(C)NCCC(c1ccccc1)c1ccccc1 (centres unmarked) .
Marked response: 29

Exam item: Name the recorded % activity for CCOC(=O)COc1cccc(C(C)NCc2ccc(OC)c(C)c2)c1 (centres unmarked) [Compound 24V] .
Marked response: 71

Exam item: Name the recorded % activity for COc1cccc(C(C)NCCCc2ccccc2F)c1 (centres unmarked) .
Marked response: 34

Exam item: Name the recorded % activity for Cc1ccc(CN[C@H](C)c2cccc3ccccc23)cc1C [Compound 16V] .
Marked response: 102

Exam item: Name the recorded % activity for COc1ccc(CNC(C)c2cccc(Br)c2)cc1C (centres unmarked) [Compound 23Q] .
Marked response: 98

Exam item: Name the recorded % activity for CC(NC1CCc2ccccc2C1)c1ccccc1 (mixture of isomers) .
Marked response: 8

Exam item: Name the recorded % activity for COc1ccc(CNC(C)c2ccccc2C)cc1C (centres unmarked) [Compound 23W] .
Marked response: 81

Exam item: Name the recorded % activity for CC(=O)c1ccc(CN[C@H](C)c2cccc3ccccc23)cc1 [Compound 17C] .
Marked response: 99

Exam item: Name the recorded % activity for COc1cccc([C@@H](C)NC(C)CCc2cc(F)cc(F)c2)c1 (some centres unmarked) [Compound 24P] .
Marked response: 110

Exam item: Name the recorded % activity for COc1cccc(C(C)NCc2ccc3ccccc3c2)c1 (centres unmarked) [Compound 10P] .
Marked response: 74

Exam item: Name the recorded % activity for COc1cccc([C@@H](C)NCc2cccc(Oc3ccccc3)c2)c1 [Compound 12H] .
Marked response: 94

====

Provide the recorded % activity for the entries that follow.
- assayed_system: human calcium receptor (Homo sapiens, UniProt P41180, R990G)
- Construct: expressed in transfected cells; host or cells: HEK 293
- test: increases in [Ca^2+ ]i in HEK-293 cells expressing the human calcium receptor (fura-2 loaded HEK 293/pHuPCaR4.0 cells), % activity
- Type: cell-based
- condition_notes: 330 ng/mL
Give the figure together with its unit, number first.

Exam item: Name the recorded % activity for COc1cccc([C@@H](C)NCCCc2cccc(OC(F)(F)F)c2)c1 [Compound 21M] .
Marked response: 102%

Exam item: Name the recorded % activity for CCOc1ccc(CN[C@H](C)c2cccc3ccccc23)cc1 [Compound 16W] .
Marked response: 102%

Exam item: Name the recorded % activity for COc1ccc(CN[C@H](C)c2cccc3ccccc23)c(C)c1C [Compound 17L] .
Marked response: 104%

Exam item: Name the recorded % activity for COc1cccc([C@@H](C)N[C@H](C)CCc2ccccc2)c1 [Compound 21D] .
Marked response: 104%

Exam item: Name the recorded % activity for CC(N[C@H](C)c1ccccc1)c1cccc2ccccc12 (stereo partly shown) .
Marked response: 83%

Exam item: Name the recorded % activity for C[C@@H](NCc1ccc(C(F)(F)F)cc1)c1cccc2ccccc12 [Compound 17F] .
Marked response: 111%

Exam item: Name the recorded % activity for COc1ccc(CNC(C)c2ccc(Br)cc2)cc1C (stereo not shown) [Compound 23R] .
Marked response: 86%

Exam item: Name the recorded % activity for CCOc1ccc(CN[C@H](C)c2cccc3ccccc23)cc1C [Compound 25A] .
Marked response: 120%

Exam item: Name the recorded % activity for COc1cccc([C@@H](C)NCCCc2cccc(F)c2)c1 .
Marked response: 100%

Exam item: Name the recorded % activity for CCOc1cccc([C@@H](C)NCCCc2ccccc2Cl)c1 .
Marked response: 129%
